- Tested on: HCV genotype 1b (Con1) replicon in HUH-7 cells
- METHOD NOTES: HCV replicon luciferase reporter assay, genotype 1b
- Assay type: cell-based
- CONDITIONS USED: Hepatitis C virus, Huh-7, 72 h, HCV genotype 1b replicon luciferase, 3 days incubation, read-out: LE_1b (EC50, range)
pEC50: −log10 of the molar value.
A collection of compounds and their measured pEC50

CC(C)Oc1cc2ccccc2c(O[C@@H]2C[C@H]3C(=O)N[C@]4(C(=O)NS(=O)(=O)C5(CF)CC5)C[C@H]4/C=C\CC[C@@H](C)C[C@@H](C)[C@H](NC(=O)OC(C)(C)C)C(=O)N3C2)n1 [Compound 6110] ... 9.00 to 9.29
CC[C@@H]1C[C@H](C)CC/C=C\[C@@H]2C[C@@]2(C(=O)NS(=O)(=O)C2(C)CC2)NC(=O)[C@@H]2C[C@@H](Oc3ncc(OC)c4ccc(F)cc34)CN2C(=O)[C@H]1NC(=O)N1CCOCC1 [Compound 4284] ... 9.30 to 10.00

Q. Which pEC50 value belongs to CCOc1nnc(O[C@@H]2C[C@H]3C(=O)N[C@]4(C(=O)NS(=O)(=O)C5CC5)C[C@H]4/C=C\CC[C@@H](C)C[C@@H](C)[C@H](NC(=O)NC(C)(C)C)C(=O)N3C2)c2ccccc12 [Compound 5041] ?
A. 6.99 to 8.32

Q. // query: COc1cnc(O[C@@H]2C[C@H]3C(=O)N[C@]4(C(=O)NS(=O)(=O)C5(CF)CC5)C[C@H]4CCCC[C@H](C)C[C@@H](C)[C@H](NC(=O)OC(C)(C)C(C)(F)F)C(=O)N3C2)c2ccccc12 [Compound 5118]
A. 6.99 to 8.32

Q. Can you handle CC(C)Oc1cc2ccccc2c(O[C@@H]2C[C@H]3C(=O)N[C@]4(C(=O)NS(=O)(=O)C5(C)CC5)C[C@H]4/C=C\CC[C@@H](C)C[C@@H](C)[C@H](NC(=O)OC(C)(C)C(F)(F)F)C(=O)N3C2)n1 [Compound 6104] next?
A. 9.00 to 9.29

Q. And what about the compound CC[C@@H]1C[C@H](C)CC/C=C\[C@@H]2C[C@@]2(C(=O)NS(=O)(=O)C2(C)CC2)NC(=O)[C@@H]2C[C@@H](Oc3ncc(OC)c4ccc(F)cc34)CN2C(=O)[C@H]1NC(=O)N1CCN(C)CC1 [Compound 4341] ?
A. 8.30 to 9.00
